Origin of values: the supplement of paper PMC6555819

Kindly supply the reported PBM binding z-score values for the records listed here.
Tested on: VDR:RXRa (NR concentration 270 nM, RXRa partner concentration 90 nM)
Assay: PBM binding z-score (relative to random genomic background probes); higher = stronger binding; sequences stand for … in GC…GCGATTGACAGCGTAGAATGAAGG
Provide a numeric answer; units are not to be included.

Exercise: Give PBM binding z-score for the following sequence: CGCCCAAGGTCAAGGTCAGTGAAAGAGACTCGAA
Solution: 4.61

Exercise: Give PBM binding z-score for the following sequence: ACTATTAGTTGACGTAGGGCAACCGATACGACGC
Solution: 0.19

Exercise: Give PBM binding z-score for the following sequence: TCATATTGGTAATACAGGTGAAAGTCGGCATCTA
Solution: 1.12

Exercise: Give PBM binding z-score for the following sequence: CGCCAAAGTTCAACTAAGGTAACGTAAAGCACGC
Solution: 4.9

Exercise: Give PBM binding z-score for the following sequence: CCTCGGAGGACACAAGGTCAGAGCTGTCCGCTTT
Solution: 1.88

Exercise: Give PBM binding z-score for the following sequence: AGTCAAAGATCAGGACGAGGTAACGTAAAGCACG
Solution: -0.216
